tested on: A549 viability, CellTiter-Glo ATP luminescence, 72 h; test: A549 cell cytotoxicity, dose response, cytotoxicity control, CellTiter-Glo luminescence, dry powder, set 13 (AID 977617)
Listed here: items and their measured AC50.

- smiles.text: "C[C@@H](O)C#Cc1ccc2c(c1)O[C@H](CN(C)Cc1ccc(-c3ccccc3)cc1)[C@@H](C)CN([C@@H](C)CO)S2(=O)=O"
  AC50: "19.4 µM"
- smiles.text: "C[C@H]1CN([C@@H](C)CO)S(=O)(=O)c2ccc(C#CC(C)(C)O)cc2O[C@H]1CN(C)Cc1ccc(-c2ccccc2)cc1"
  AC50: "19.9 µM"
- smiles.text: "COc1cccc(-c2ccc(CN(C)C[C@@H]3Oc4cc(C#C[C@@H](C)O)ccc4S(=O)(=O)N([C@@H](C)CO)C[C@@H]3C)cc2)c1"
  AC50: "15.2 µM"
- smiles.text: "C[C@@H]1CN([C@@H](C)CO)S(=O)(=O)c2ccc(C#C[C@@H](C)O)cc2O[C@H]1CN(C)Cc1ccc(-c2ccccc2)cc1"
  AC50: "26.1 µM"
- smiles.text: "C[C@H](O)C#Cc1ccc2c(c1)O[C@H](CN(C)Cc1ccc(-c3ccccc3)cc1)[C@@H](C)CN([C@H](C)CO)S2(=O)=O"
  AC50: "19.4 µM"
- smiles.text: "C[C@H](O)C#Cc1ccc2c(c1)O[C@@H](CN(C)Cc1ccc(-c3ccccc3)cc1)[C@H](C)CN([C@@H](C)CO)S2(=O)=O"
  AC50: "26.1 µM"
- smiles.text: "C[C@@H](O)C#Cc1ccc2c(c1)O[C@@H](CN(C)Cc1ccc(-c3cccc(Cl)c3)cc1)[C@@H](C)CN([C@@H](C)CO)S2(=O)=O"
  AC50: "14.1 µM"
- smiles.text: "Cc1ccccc1-c1ccc(CN(C)C[C@@H]2Oc3cc(C#C[C@@H](C)O)ccc3S(=O)(=O)N([C@@H](C)CO)C[C@@H]2C)cc1"
  AC50: "16.7 µM"
- smiles.text: "COc1ccc(-c2ccc(CN(C)C[C@@H]3Oc4cc(C#C[C@@H](C)O)ccc4S(=O)(=O)N([C@@H](C)CO)C[C@@H]3C)cc2)cc1"
  AC50: "14.1 µM"
- smiles.text: "C[C@H](O)C#Cc1ccc2c(c1)O[C@H](CN(C)Cc1ccc(-c3ccccc3)cc1)[C@@H](C)CN([C@@H](C)CO)S2(=O)=O"
  AC50: "6 µM"
- smiles.text: "Cc1cccc(-c2ccc(CN(C)C[C@@H]3Oc4cc(C#C[C@@H](C)O)ccc4S(=O)(=O)N([C@@H](C)CO)C[C@@H]3C)cc2)c1"
  AC50: "15 µM"

Just for reference, PubChem BioAssay AID977617 is where these values come from.
